Would you mind telling me the reported z-score of each entry?
Experiment: budding yeast growth modifiers under rapamycin – strain BY4716, OD600, 96 h, primary screen (AID 1091); also: test concentration not given here
Conditions: S. cerevisiae BY4716 + rapamycin, higher = more signal, called active from +8 up or from −8 down
Number, no unit, nothing else.

Please fill in: z-score reported for COC(=O)[C@@]1(Cc2ccc(OC)cc2)[C@H]2c3cc(C(=O)N4CCCC4)n(CCc4ccccn4)c3C[C@H]2CN1C(=O)c1ccccc1 = 0.556

Cc1ccc(S[C@]2(C(=O)NCCCN(C)C)CC(=O)N(Cc3ccccc3)[C@@H]2c2ccc(CO)cc2)cc1 has a reported z-score of -1.03

compound O=C1O[C@H](c2ccccc2)[C@H](c2ccccc2)N2[C@H]1[C@@H](C(=O)N1CCCCCCC1)[C@]1(C(=O)Nc3ccc(C#CC4=CCCCC4)cc31)[C@H]2c1ccc(O)cc1 , z-score observed: 0.791
